A collection of compounds and their measured mKOR Efficacy(%)
target: mouse kappa opioid receptor (mKOR) (Mus musculus, UniProt P33534); construct: a mouse thymoma cell line that expresses only the kappa-opioid receptor and no other opioid receptor subtype; host or cells: R1.G1 mouse thymoma cells; assay: Inhibition of forskolin-stimulated cAMP production in R1.G1 cells (TR-FRET cAMP immunoassay); type: cell-based; conditions: R1.G1 cells
Sequence (P33534 whole entry): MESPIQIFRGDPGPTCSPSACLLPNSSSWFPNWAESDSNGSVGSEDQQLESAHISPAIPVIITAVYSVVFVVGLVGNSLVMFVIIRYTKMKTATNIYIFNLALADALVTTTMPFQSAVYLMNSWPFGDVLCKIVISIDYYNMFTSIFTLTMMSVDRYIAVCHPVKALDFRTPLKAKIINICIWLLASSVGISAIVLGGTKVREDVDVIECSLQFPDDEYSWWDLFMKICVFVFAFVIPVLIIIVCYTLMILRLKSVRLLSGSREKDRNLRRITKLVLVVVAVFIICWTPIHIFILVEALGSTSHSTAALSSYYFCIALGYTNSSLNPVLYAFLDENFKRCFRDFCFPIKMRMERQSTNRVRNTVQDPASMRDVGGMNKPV
Square brackets hold non-standard residues; d marks the D form. Peptide text beside a SMILES is read from it. dNle = CCCC[C@@H](N)C(=O)O
Express your answer in %, writing the number without its unit.

As a guide, the following entries are already answered.
CCCC[C@@H](NC(=O)[C@@H](Cc1ccccc1)NC(=O)[C@H](N)Cc1ccccc1)C(=O)N[C@H](CCCNC(=N)N)C(=O)N1CCC[C@@H]1C(=O)O [Compound 3, D-Phe-D-Phe-D-Nle-D-Arg-D-Pro-OH] (H-[dF][dF][dNle][dR][dP]-OH; N-terminus assumed) = 88
CC(C)C[C@@H](NC(=O)[C@@H](Cc1ccccc1)NC(=O)[C@H](N)Cc1ccccc1)C(=O)N[C@H](CCCN)C(=O)N1CCC(CC(N)C(=O)O)CC1 (stereo partly drawn) = 102

stdin: Which mKOR Efficacy(%) reading was recorded for the compound `CC(C)C[C@@H](NC(=O)[C@H](N)Cc1ccccc1)C(=O)N[C@H](CCCN)C(=O)N[C@@H](CCCCNC(=O)[C@@H](CCCN)NC(=O)[C@@H](CC(C)C)NC(=O)[C@@H](Cc1ccccc1)NC(=O)[C@H](N)Cc1ccccc1)C(=O)O` ?
stdout: 100

----------
molecular target: human kappa opioid receptor (hKOR) (Homo sapiens); construct: expressed in transfected cells; host or cells: HEK-293 cells (ATCC), transient transfection with pcDNA3-hOPRK1; test: NFAT-luciferase reporter assay in HEK-293 cells transfected with human kappa opioid receptor and chimeric G-protein; type: cell-based; details: percent maximal activation compared to full induction by known kappa agonists
Measurement type: hKOR Efficacy(%)

CC(C)C[C@@H](NC(=O)[C@@H](Cc1ccccc1)NC(=O)[C@H](N)Cc1ccccc1)C(=O)N[C@H](CCCN)C(=O)N1CCC(CC(=O)O)CC1 = 99%
CC(C)C[C@@H](NC(=O)[C@@H](Cc1ccccc1)NC(=O)[C@H](N)Cc1ccccc1)C(=O)N[C@H](CCCN)C(=O)N1CCOC(C(=O)O)C1 (stereo partly drawn) = 100%

stdin: Request: hKOR Efficacy(%), test system human kappa opioid receptor (hKOR) (Homo sapiens), entry `CC(C)C[C@@H](NC(=O)[C@@H](Cc1ccccc1)NC(=O)[C@H](N)Cc1ccccc1)C(=O)N[C@H](CCCN)C(=O)NCCN1CCN(CC(N)=O)CC1`
stdout: 96%

----------
Documented hKOR Efficacy(%) across a set of compounds
biological target: human kappa opioid receptor (hKOR) (Homo sapiens); construct: expressed in transfected cells; host or cells: HEK-293 cells (ATCC), transient transfection with pcDNA3-hOPRK1; test: NFAT-luciferase reporter assay in HEK-293 cells transfected with human kappa opioid receptor and chimeric G-protein; type: cell-based; conditions: percent maximal activation compared to full induction by known kappa agonists
A bare number is not enough; add the unit after it.

CC(C)C[C@@H](NC(=O)[C@@H](Cc1ccccc1)NC(=O)[C@H](N)Cc1ccccc1)C(=O)N[C@H](CCCCN)C(=O)N1CCN(c2cnccn2)CC1 = 100%

stdin: Recorded hKOR Efficacy(%) for `CC(C)C[C@@H](NC(=O)[C@@H](Cc1ccccc1)NC(=O)[C@H](N)Cc1ccccc1)C(=O)N[C@H](CCCCN)C(=O)N1CCN(c2ccccn2)CC1` , please?
stdout: 100%

stdin: Recorded hKOR Efficacy(%) for CC(C)C[C@@H](NC(=O)[C@@H](Cc1ccccc1)NC(=O)[C@H](N)Cc1ccccc1)C(=O)N[C@H](CCCN)C(=O)N1CCC(CC(N)C(=O)O)CC1 (some centres unmarked) , please?
stdout: 104%

stdin: Record request: hKOR Efficacy(%) value, item `CC(C)C[C@@H](NC(=O)[C@@H](Cc1ccccc1)NC(=O)[C@H](N)Cc1ccccc1)C(=O)N[C@H](CCCN)C(=O)N1CCC(N2CCC[C@H]2C(=O)O)CC1`
stdout: 92%

stdin: Given the entry `CC(C)C[C@@H](NC(=O)[C@@H](Cc1ccccc1)NC(=O)[C@H](N)Cc1ccccc1)C(=O)N[C@H](CCCCN)C(=O)N1CCN(c2ncccn2)CC1` , report its measured hKOR Efficacy(%).
stdout: 98%

----------
Reported hKOR Efficacy(%) by item:
biological target: human kappa opioid receptor (hKOR) (Homo sapiens, UniProt P41145); construct: expressed in transfected cells; host or cells: HEK-293 cells (ATCC), transient transfection with pcDNA3-hOPRK1; experiment: NFAT-luciferase reporter assay in HEK-293 cells transfected with human kappa opioid receptor and chimeric G-protein; format: cell-based; settings: percent maximal activation compared to full induction by known kappa agonists
Sequence (P41145 whole entry): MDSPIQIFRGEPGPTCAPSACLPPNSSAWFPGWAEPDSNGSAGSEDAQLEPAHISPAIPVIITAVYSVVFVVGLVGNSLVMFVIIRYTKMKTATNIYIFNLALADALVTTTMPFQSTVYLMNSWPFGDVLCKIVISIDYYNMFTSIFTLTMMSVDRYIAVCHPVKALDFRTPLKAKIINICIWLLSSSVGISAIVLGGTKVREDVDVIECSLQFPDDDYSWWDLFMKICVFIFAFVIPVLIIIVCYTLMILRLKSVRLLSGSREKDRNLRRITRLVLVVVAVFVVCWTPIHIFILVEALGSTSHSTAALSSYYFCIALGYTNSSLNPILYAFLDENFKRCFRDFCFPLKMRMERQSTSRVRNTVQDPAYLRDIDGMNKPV
Respond numerically; units are % and should not be typed.

CC(C)C[C@@H](NC(=O)[C@@H](Cc1ccccc1)NC(=O)[C@H](N)Cc1ccccc1)C(=O)N[C@H](CCCN)C(=O)NCCN1CCN(CC(=O)O)CC1 = 102
CC(C)C[C@@H](NC(=O)[C@@H](Cc1ccccc1)NC(=O)[C@H](N)Cc1ccccc1)C(=O)N[C@H](CCCCN)C(=O)N1CCN(S(C)(=O)=O)CC1 = 100

Field: next compound
stdin: Quick one: hKOR Efficacy(%) of `CC(C)C[C@@H](NC(=O)[C@H](N)Cc1ccccc1)C(=O)N[C@H](CCCN)C(=O)N[C@@H](CCCCNC(=O)[C@@H](CCCN)NC(=O)[C@@H](CC(C)C)NC(=O)[C@@H](Cc1ccccc1)NC(=O)[C@H](N)Cc1ccccc1)C(=O)O` ?
stdout: 89

----------
biological target: mouse kappa opioid receptor (mKOR) (Mus musculus); construct: a mouse thymoma cell line that expresses only the kappa-opioid receptor and no other opioid receptor subtype; host or cells: R1.G1 mouse thymoma cells; assay: Inhibition of forskolin-stimulated cAMP production in R1.G1 cells (TR-FRET cAMP immunoassay); type: cell-based; conditions: R1.G1 cells
Measurement type: mKOR Efficacy(%)
// units = %; emit number, no label

As a guide, the following entries are already answered.
CC(C)C[C@@H](NC(=O)[C@@H](Cc1ccccc1)NC(=O)[C@H](N)Cc1ccccc1)C(=O)N[C@H](CCCN)C(=O)N1CCC(N)(C(=O)O)CC1 = 100
CC(C)C[C@@H](NC(=O)[C@@H](Cc1ccccc1)NC(=O)[C@H](N)Cc1ccccc1)C(=O)N[C@H](CCCN)C(=O)N1CCC(CCCC(=O)O)CC1 = 100

stdin: Please report the recorded mKOR Efficacy(%) for `CC(C)C[C@@H](NC(=O)[C@@H](Cc1ccccc1)NC(=O)[C@H](N)Cc1ccccc1)C(=O)N[C@H](CCCCN)C(=O)N1CCS(=O)(=O)CC1` .
stdout: 89

stdin: So what does the record say about mKOR Efficacy(%) for `CC(C)C[C@@H](NC(=O)[C@@H](Cc1ccccc1)NC(=O)[C@H](N)Cc1ccccc1)C(=O)N[C@H](CCCN)C(=O)NCCN1CCN(CC(=O)O)CC1` ?
stdout: 98

stdin: Consider the compound shown here: `CC(C)C[C@@H](NC(=O)[C@@H](Cc1ccccc1)NC(=O)[C@H](N)Cc1ccccc1)C(=O)N[C@H](CCCNC(C)C)C(=O)N1CCCN(C(=N)N)CC1` What is its recorded mKOR Efficacy(%)?
stdout: 97

----------
molecular target: human kappa opioid receptor (hKOR) (Homo sapiens); construct: expressed in transfected cells; host or cells: HEK-293 cells (ATCC), transient transfection with pcDNA3-hOPRK1; assay: NFAT-luciferase reporter assay in HEK-293 cells transfected with human kappa opioid receptor and chimeric G-protein; type: cell-based; conditions: HEK293; percent maximal activation compared to full induction by known kappa agonists; read-out: hKOR Efficacy(%)
Square brackets hold non-standard residues; d marks the D form. Peptide text beside a SMILES is read from it. dOrn = NCCC[C@@H](N)C(=O)O; Inp = O=C(O)C1CCNCC1
Listing: Emax of selected compounds
A number alone suffices; assume %.

Before answering, review these 4 worked examples.
CC(C)C[C@@H](NC(=O)[C@@H](Cc1ccccc1)NC(=O)[C@H](N)Cc1ccccc1)C(=O)N[C@H](CCCN)C(=O)N1CCCNCC1 [Compound 11] = 90
CC(C)C[C@@H](NC(=O)[C@@H](Cc1ccccc1)NC(=O)[C@H](N)Cc1ccccc1)C(=O)N[C@H](CCCN)C(=O)N1CCC(C(=O)O)CC1 [Compound 9] (H-[dF][dF][dL][dOrn][Inp]-OH; N-terminus assumed) = 134
CCN1CCCN(C(=O)[C@@H](CCCN)NC(=O)[C@@H](CC(C)C)NC(=O)[C@@H](Cc2ccccc2)NC(=O)[C@H](N)Cc2ccccc2)CC1 [Compound 18] = 99
CC(C)C[C@@H](NC(=O)[C@@H](Cc1ccccc1)NC(=O)[C@H](N)Cc1ccccc1)C(=O)N[C@H](CCCNC(C)C)C(=O)N1CCC(N)(C(=O)O)CC1 [Compound 20] = 97

stdin: What does the data say about its Emax? Entry: CC(C)C[C@@H](NC(=O)[C@@H](Cc1ccccc1)NC(=O)[C@H](N)Cc1ccccc1)C(=O)N[C@H](CCCN)C(=O)NCCCC[C@H](NC(=O)[C@H](N)CCCN)C(=O)N1CCNCC1 [Compound 44]
stdout: 93

stdin: Fill in: Emax of Cc1cnc(CNC(=O)[C@@H](CCCCN)NC(=O)[C@@H](CC(C)C)NC(=O)[C@@H](Cc2ccccc2)NC(=O)[C@H](N)Cc2ccccc2)cn1 [Compound 38] is ___
stdout: 100

stdin: Quick check: Emax of CNC(=N)N1CCCN(C(=O)[C@@H](CCCN)NC(=O)[C@@H](CC(C)C)NC(=O)[C@@H](Cc2ccccc2)NC(=O)[C@H](N)Cc2ccccc2)CC1 [Compound 19] ?
stdout: 93

stdin: Reported Emax for CC(C)C[C@@H](NC(=O)[C@@H](Cc1ccccc1)NC(=O)[C@H](N)Cc1ccccc1)C(=O)N[C@H](CCCN)C(=O)NCCCC[C@H](NC(=O)[C@H](N)CCCN)C(=O)O [Compound 42] : what is it?
stdout: 95

stdin: I'd like to know its Emax. The compound in question is CC(C)C[C@@H](NC(=O)[C@@H](Cc1ccccc1)NC(=O)[C@H](N)Cc1ccccc1)C(=O)N[C@H](CCCN)C(=O)N1CCCN(C(=N)N)CC1 [Compound 16]
stdout: 90
